# Test system: E. coli CFT073 biofilm
# PROTOCOL_SUMMARY: Susceptibility of 24 h biofilm on CBD to antibiotics with or without V9T14 (MBEC, viable cell count, CLSM)
# Format: cell-based, Escherichia coli
# PROTOCOL_CONDITIONS: antibiotic plus 5 μg/mL V9T14 biosurfactant, 24 h
ENDPOINT: MBEC99.9%, AbBs

// worked examples, MBEC99.9%, AbBs included
1. CC1(C)S[C@@H]2[C@H](NC(=O)[C@H](N)c3ccccc3)C(=O)N2[C@H]1C(=O)O [Ampicillin, ampicillin]
0.5 to 1 µg/mL
2. CO/N=C(\C(=O)N[C@@H]1C(=O)N2C(C(=O)O)=C(CSc3nc(=O)c(O)nn3C)CS[C@H]12)c1csc(N)n1 [Cefriaxone, ceftriaxone]
0.5 to 1 µg/mL
3. CCN1CCN(C(=O)N[C@@H](C(=O)N[C@@H]2C(=O)N3[C@@H]2SC(C)(C)[C@@H]3C(=O)O)c2ccccc2)C(=O)C1=O [Piperacillin, piperacillin]
>32 µg/mL

Request: Read the entry NC[C@H]1O[C@H](O[C@H]2[C@H](O)[C@@H](O[C@H]3O[C@H](CO)[C@@H](O)[C@H](N)[C@H]3O)[C@H](N)C[C@@H]2N)[C@H](N)C[C@@H]1O [Tobramycin, tobramycin] and write its reported MBEC99.9%, AbBs.
Result: 2 to 4 µg/mL

Request: Identify MBEC99.9%, AbBs associated with the molecule Cc1nnc(SCC2=C(C(=O)O)N3C(=O)[C@@H](NC(=O)Cn4cnnn4)[C@H]3SC2)s1 [Cefazolin, cefazolin]
Result: 8 µg/mL

----------
# Lookup of reported MBEC99.9%, Ab keyed by entry
# Tested on: E. coli CFT073 biofilm
# PROTOCOL_SUMMARY: Susceptibility of 24 h biofilm on CBD to antibiotics with or without V9T14 (MBEC, viable cell count, CLSM)
# Type: cell-based, Escherichia coli
# PROTOCOL_CONDITIONS: antibiotic alone, 24 h, 3 log10 reduction

1) NC[C@H]1O[C@H](O[C@H]2[C@H](O)[C@@H](O[C@H]3O[C@H](CO)[C@@H](O)[C@H](N)[C@H]3O)[C@H](N)C[C@@H]2N)[C@H](N)C[C@@H]1O [Tobramycin, tobramycin]
2 to 4 µg/mL
2) CCN1CCN(C(=O)N[C@@H](C(=O)N[C@@H]2C(=O)N3[C@@H]2SC(C)(C)[C@@H]3C(=O)O)c2ccccc2)C(=O)C1=O [Piperacillin, piperacillin]
>32 µg/mL
3) CC1(C)S[C@@H]2[C@H](NC(=O)[C@H](N)c3ccccc3)C(=O)N2[C@H]1C(=O)O [Ampicillin, ampicillin]
4 µg/mL

Now for the compound whose MBEC99.9%, Ab we want.
Request: Look up MBEC99.9%, Ab of CO/N=C(\C(=O)N[C@@H]1C(=O)N2C(C(=O)O)=C(CSc3nc(=O)c(O)nn3C)CS[C@H]12)c1csc(N)n1 [Cefriaxone, ceftriaxone] and report it.
Result: 1 to 2 µg/mL

----------
# Test system: planktonic E. coli CFT073
# PROTOCOL_SUMMARY: Susceptibility of planktonic cultures to antibiotics with or without V9T14 (MIC by OD650, MBC by viable cell count)
# Type: cell-based, Escherichia coli
# PROTOCOL_CONDITIONS: Escherichia coli, 24 h, antibiotic alone, 24 h, OD650; read-out: MIC, Ab
ENDPOINT: MIC

1. CCN1CCN(C(=O)N[C@@H](C(=O)N[C@@H]2C(=O)N3[C@@H]2SC(C)(C)[C@@H]3C(=O)O)c2ccccc2)C(=O)C1=O [Piperacillin, piperacillin]
> 32 µg/mL
2. NC[C@H]1O[C@H](O[C@H]2[C@H](O)[C@@H](O[C@H]3O[C@H](CO)[C@@H](O)[C@H](N)[C@H]3O)[C@H](N)C[C@@H]2N)[C@H](N)C[C@@H]1O [Tobramycin, tobramycin]
16 to 32 µg/mL
3. O=C(O)c1cn(C2CC2)c2cc(N3CCNCC3)c(F)cc2c1=O [Ciprofloxacin, ciprofloxacin]
8 to 16 µg/mL

Request: Supply recorded MIC for CC1(C)S[C@@H]2[C@H](NC(=O)[C@H](N)c3ccccc3)C(=O)N2[C@H]1C(=O)O [Ampicillin, ampicillin] here.
Result: 2 to 4 µg/mL
